Collected pKd values appear next to each entry.
Target: T1, PUF4 RNA-binding domain (Saccharomyces cerevisiae, UniProt P25339 537-888)
T1 sequence: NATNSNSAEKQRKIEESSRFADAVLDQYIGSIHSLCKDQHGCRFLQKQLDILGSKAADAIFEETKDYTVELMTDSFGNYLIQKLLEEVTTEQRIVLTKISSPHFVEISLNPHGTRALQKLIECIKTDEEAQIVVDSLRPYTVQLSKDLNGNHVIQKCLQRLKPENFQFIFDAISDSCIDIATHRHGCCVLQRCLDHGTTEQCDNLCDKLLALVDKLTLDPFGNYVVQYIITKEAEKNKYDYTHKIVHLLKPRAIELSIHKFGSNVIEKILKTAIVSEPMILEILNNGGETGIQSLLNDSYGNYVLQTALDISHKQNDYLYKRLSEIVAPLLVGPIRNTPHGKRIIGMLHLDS
Test: Mg; RNA-MaP; 20 mM Na-HEPES pH 7.4, 30 mM KOAc, 0.75 mM MgCl2, 0.1% Tween-20, 5% glycerol, 0.1 mg/mL BSA, 2 mM DTT; 25 C; 0.0125-409.6 nM protein
Details: tags: N-His6-TEV cleaved; C-SNAP kept, Cy3B-labelled; label: tethered on chip by stalled RNA polymerase
When answering, recall that pKd equals minus log10 of the concentration in mol/L, and write that number alone.

Example cases with answers are listed next.
INSERT INTO measurements (binder, numeric_result) VALUES
  ('Ic_S2_P4E.1_K4.1_C4.1_H4.1_A4.1_[T5G]_[A6C]_[T7G]_F4.1_T4.1 (ssRNA) RNA: UUUGAUUAAUAUGAUAUCGUUCUUUCUUGUAGCGUAUUCUUUCUCGAUAUCAUAUUAAUCUUU', 8.01),
  ('UCUCUUUGUAUUGUAUCUCUU (ssRNA) [Ib_S1_P4E.1_K4.1_C4.1_H4.1_A4.1_[A6T]_[T7G]_F4.1_T4.1]', 8.11);

Which pKd is listed for UCUCUUUGUAUUAUUAUUUCUCUU (ssRNA) [Ie_S1_P5E.1_K5.1_C5.1_H5.1_A5.1_F5.1_[+10TT]_T5.1] ?
8.19

Which pKd is listed for UCUCUUUGUAAACACUCUCUU (ssRNA) [Ic_S1_P4E.1_K4.1_C4.1_H4.1_A4.1_[T5A]_[T7C]_F4.1_[T8A]_[A9C]_T4.1] ?
6.25

The measurements presented in this section are drawn from paper PMC9352680.
